pIC50 listing for selected binders.
- Target of assay: IL23R_huFC (human) (UniProt Q5VWK5)
- Sequence (Q5VWK5 24-353 limits assumed): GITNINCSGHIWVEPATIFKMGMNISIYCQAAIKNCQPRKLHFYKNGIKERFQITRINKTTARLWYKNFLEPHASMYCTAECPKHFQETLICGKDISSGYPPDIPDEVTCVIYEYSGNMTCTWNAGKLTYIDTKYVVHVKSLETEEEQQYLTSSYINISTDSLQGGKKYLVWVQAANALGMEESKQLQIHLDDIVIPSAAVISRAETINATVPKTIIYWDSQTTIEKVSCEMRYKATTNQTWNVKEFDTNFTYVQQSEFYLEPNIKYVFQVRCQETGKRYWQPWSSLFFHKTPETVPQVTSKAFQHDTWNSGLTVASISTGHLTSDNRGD
- Assay method text: IL23-IL23R competitive binding ELISA
pIC50: −log10 of the molar value. Bridges are numbered along the chain shown (N, C = ends). [ ]: non-standard residue; d: D form. 2Nal = N[C@@H](Cc1ccc2ccccc2c1)C(=O)O; Pen = CC(C)(S)[C@H](N)C(=O)O; αMeK = C[C@](N)(CCCCN)C(=O)O

These solved cases illustrate the format of a correct answer.
# Binder, pIC50
measured = [
    ("Ac-[Pen]QTWQ[Pen][2Nal][2Nal][αMeK]ENG-NH2 (disulfide 1-6; SMILES CC(=O)N[C@@H]1C(=O)N[C@@H](CCC(N)=O)C(=O)N[C@@H]([C@@H](C)O)C(=O)N[C@@H](Cc2c[nH]c3ccccc23)C(=O)N[C@@H](CCC(N)=O)C(=O)N[C@H](C(=O)N[C@@H](Cc2ccc3ccccc3c2)C(=O)N[C@@H](Cc2ccc3ccccc3c2)C(=O)N[C@@](C)(CCCCN)C(=O)N[C@@H](CCC(=O)O)C(=O)N[C@@H](CC(N)=O)C(=O)NCC(N)=O)C(C)(C)SSC1(C)C) [Ac-[Pen]-QTWQ-[Pen]-[2-Nal]-[2-Nal]-[α-MeLys]-ENG-NH2]", "6.00 to 7.00"),
    ("XQTWQXYXXENG (Ac; Pen-Pen disulfide; 1-Nal; α-MeOrn; NH2) [Ac-[Pen]-QTWQ-[Pen]-Y-[1-Nal]-[α-MeOrn]-ENG-NH2]", "6.00 to 7.00"),
]

# next binder below
Can you look up the measured pIC50 of XNTWQXFXXKNN (Ac; Pen-Pen disulfide; Phe[4-(2-aminoethoxy)]; 2-Nal; Aib; Lys(Ac); NH2) [Ac-[Pen]-NTWQ-[Pen]-[Phe[4-(2-aminoethoxy)]-[2-Nal]-[Aib]-[Lys(Ac)]-NN-NH2] for me? > 8.00

# credit: patent US20190300590A1
